Recorded measurements of antagonist pA2 (Schild, agonist NDP-MSH), one per entry
Target: mouse melanocortin-4 receptor (mouse, UniProt P56450 1-332)
Sequence (P56450 whole entry): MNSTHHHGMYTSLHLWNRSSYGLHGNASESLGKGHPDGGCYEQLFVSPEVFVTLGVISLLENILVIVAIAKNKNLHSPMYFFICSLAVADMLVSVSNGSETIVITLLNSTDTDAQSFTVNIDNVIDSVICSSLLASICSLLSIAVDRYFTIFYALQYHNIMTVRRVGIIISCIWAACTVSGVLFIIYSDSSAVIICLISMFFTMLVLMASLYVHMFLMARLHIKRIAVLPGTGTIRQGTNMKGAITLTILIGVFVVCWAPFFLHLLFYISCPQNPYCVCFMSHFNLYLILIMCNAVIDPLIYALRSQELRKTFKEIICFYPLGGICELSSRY
Experiment: cell-based or functional assay
Square brackets hold non-standard residues; d marks the D form.
Quick one: just the number, no unit, thanks!

>  <binder>
RCVRLHESCLGQQVPCCDPCATCYCRFFNAFCYCRKLGTAMNPCSRT (ligand, human, UniProt O00253 86-132, looked up, range 86-132; also called C-terminal domain of AGRP) [hAGRP(86-132)]

>  <antagonist pA2 (Schild, agonist NDP-MSH)>
8.7

$$$$

Kindly review the next binder as well.
Can you look up the measured antagonist pA2 (Schild, agonist NDP-MSH) of cyclo(PRFFNGF[dP]) (SMILES N=C(N)NCCC[C@@H]1NC(=O)[C@@H]2CCCN2C(=O)[C@H]2CCCN2C(=O)[C@H](Cc2ccccc2)NC(=O)CNC(=O)[C@H](CC(N)=O)NC(=O)[C@H](Cc2ccccc2)NC(=O)[C@H](Cc2ccccc2)NC1=O) [c[Pro-Arg-Phe-Phe-Asn-Gly-Phe-DPro]] for me? 6.1
